Target: VAV1 (Homo sapiens, UniProt P15498+Q96SW2)
Construct: A heterozygous VAV1 C-terminal HiBiT knock-in pool was generated at Monte Rosa Therapeutics from a clonal Jurkat cell; endogenous in cells; host or cells: Jurkat clone stably expressing LgBiT, homozygous GSPT1-G575N; heterozygous VAV1-HiBiT knock-in pool
Assay: VAV1 degradation activity, VAV1-HiBiT knock-in Jurkat luminescence assay (Example A, Table 1)
Format: cell-based
Conditions: Jurkat, VAV1-HiBiT knock-in Jurkat cells, luminescence read at 6 and 24 hours; read-out: VAV1 Dmax %, class
# Dmax listing for each entry below
READOUT LABEL: Dmax

- COMPOUND: "COCCCOc1ccc(-c2cccc(C3CCC(=O)NC3=O)c2Cl)cc1 (stereo not drawn)"
  RESULT: "> 90%"
- COMPOUND: "O=C1CCC(c2cccc(-c3ccc(C(=O)Nc4ccon4)cc3)c2Cl)C(=O)N1 (stereo not drawn)"
  RESULT: "< 60%"
- COMPOUND: "O=C1CCC(c2cccc(-c3ccc(Cc4ccco4)cc3)c2Cl)C(=O)N1 (stereo not drawn)"
  RESULT: "> 90%"
- COMPOUND: "O=C1CCC(c2cccc(-c3ccc(CN4CCCCC4=O)cc3)c2Cl)C(=O)N1 (stereo not drawn)"
  RESULT: "> 90%"
- COMPOUND: "O=C1CCC(c2cccc(-c3ccc(C(=O)n4cccc4)cc3)c2Cl)C(=O)N1 (stereo not drawn)"
  RESULT: "> 90%"
- COMPOUND: "O=C1CCC(c2cccc(-c3ccc(-n4cc(C(F)(F)F)ccc4=O)cc3)c2Cl)C(=O)N1 (stereo not drawn)"
  RESULT: "> 90%"
- COMPOUND: "O=C1CCC(c2cccc(-c3ccc(CS(=O)(=O)N4CCCC4)cc3)c2Cl)C(=O)N1 (stereo not drawn)"
  RESULT: "60 to 90%"
- COMPOUND: "O=C1CCC(c2cccc(-c3ccc(OCCCO)cc3)c2Cl)C(=O)N1 (stereo not drawn)"
  RESULT: "60 to 90%"
- COMPOUND: "O=C1CCC(c2cccc(-c3ccc(N4C(=O)OCC45CC5)nc3)c2Cl)C(=O)N1 (stereo not drawn)"
  RESULT: "60 to 90%"
- COMPOUND: "O=C1CCC(c2cccc(-c3ccc(Cc4ncco4)cc3)c2Cl)C(=O)N1 (stereo not drawn)"
  RESULT: "> 90%"
- COMPOUND: "O=C1CCC(c2cccc(-c3ccc(Cc4ccccn4)cc3)c2Cl)C(=O)N1 (stereo not drawn)"
  RESULT: "> 90%"
- COMPOUND: "O=C1CCC(c2cccc(-c3ccc(N4Cc5ccccc5C4=O)cc3)c2Cl)C(=O)N1 (stereo not drawn)"
  RESULT: "60 to 90%"
- COMPOUND: "O=C1CCC(c2cccc(-c3ccc(CCN4CCOCC4)cc3)c2Cl)C(=O)N1 (stereo not drawn)"
  RESULT: "60 to 90%"
- COMPOUND: "Cn1ccc(COc2ccc(-c3ccc(Cl)c(C4CCC(=O)NC4=O)c3Cl)cc2)n1 (stereo not drawn)"
  RESULT: "60 to 90%"
- COMPOUND: "CN1CCC[C@H](c2ccc(-c3cccc(C4CCC(=O)NC4=O)c3Cl)cc2)C1=O (stereo partly drawn)"
  RESULT: "> 90%"
- COMPOUND: "COc1ccc(-c2ccc(F)c(C3CCC(=O)NC3=O)c2F)cc1C (stereo not drawn)"
  RESULT: "< 60%"
- COMPOUND: "O=C1CC[C@@](F)(c2cccc(-c3ccc(N4CCCCC4=O)cc3)c2Cl)C(=O)N1 (single isomer, unassigned)"
  RESULT: "> 90%"
- COMPOUND: "O=C1CCC(c2cccc(-c3ccc(N4C(=O)CCCC4=O)cc3)c2Cl)C(=O)N1 (stereo not drawn)"
  RESULT: "> 90%"
- COMPOUND: "O=C1CCC(c2cccc(-c3ccc(C4COC(=O)N4)c(F)c3)c2Cl)C(=O)N1 (stereo not drawn)"
  RESULT: "< 60%"
- COMPOUND: "CN1CC(Cc2ccc(-c3cccc(C4CCC(=O)NC4=O)c3Cl)cc2)OC1=O (stereo not drawn)"
  RESULT: "60 to 90%"
- COMPOUND: "O=C1CCC(c2cccc(-c3ccc(CN4C(=O)CCCC45CC5)nc3)c2Cl)C(=O)N1 (stereo not drawn)"
  RESULT: "60 to 90%"
- COMPOUND: "COc1ccn(Cc2ccc(-c3cccc(C4CCC(=O)NC4=O)c3Cl)cc2)c(=O)c1 (stereo not drawn)"
  RESULT: "60 to 90%"
- COMPOUND: "Cc1cccn(Cc2ccc(-c3cccc(C4CCC(=O)NC4=O)c3Cl)cc2)c1=O (stereo not drawn)"
  RESULT: "> 90%"
- COMPOUND: "O=C1CCC(c2cccc(-c3ccc(N4CCC(F)(F)CC4=O)cc3)c2Cl)C(=O)N1 (stereo not drawn)"
  RESULT: "> 90%"
- COMPOUND: "Cn1ccc(COc2ccc(-c3cccc(C4CCC(=O)NC4=O)c3)cc2)n1 (stereo not drawn)"
  RESULT: "< 60%"
- COMPOUND: "CN1CCCN(c2ncc(-c3cccc(C4CCC(=O)NC4=O)c3Cl)cc2F)C1=O (stereo not drawn)"
  RESULT: "60 to 90%"
- COMPOUND: "Cc1nn(C)c2c1N(c1ccc(-c3cccc(C4CCC(=O)NC4=O)c3Cl)cc1)C(=O)CO2 (stereo not drawn)"
  RESULT: "> 90%"
- COMPOUND: "Cc1c(-c2ccc(-n3ccccc3=O)cc2)cccc1C1CCC(=O)NC1=O (stereo not drawn)"
  RESULT: "> 90%"
- COMPOUND: "O=C1CCC(c2cccc(-c3ccc(N4CC5CC5CC4=O)cc3)c2Cl)C(=O)N1 (stereo not drawn)"
  RESULT: "> 90%"
- COMPOUND: "O=C1CCC(c2cccc(-c3ccc(CN4Cc5ncccc5C4=O)cc3)c2Cl)C(=O)N1 (stereo not drawn)"
  RESULT: "> 90%"
- COMPOUND: "Cc1ccn(Cc2ccc(-c3cccc(C4CCC(=O)NC4=O)c3Cl)cc2)c(=O)c1 (stereo not drawn)"
  RESULT: "> 90%"
- COMPOUND: "CN1CCN(Cc2ccc(-c3cccc(C4CCC(=O)NC4=O)c3Cl)cc2)C(=O)C1 (stereo not drawn)"
  RESULT: "60 to 90%"
- COMPOUND: "CN1CCC(C)(C)N(c2ccc(-c3cccc(C4CCC(=O)NC4=O)c3Cl)cc2)C1=O (stereo not drawn)"
  RESULT: "> 90%"
